Value source: ChEMBL document CHEMBL1135470

target: Protein kinase C epsilon type (Homo sapiens); experiment: Inhibition of partially purified recombinant human calcium insensitive protein kinase C epsilon
Sequence (Q02156 whole entry): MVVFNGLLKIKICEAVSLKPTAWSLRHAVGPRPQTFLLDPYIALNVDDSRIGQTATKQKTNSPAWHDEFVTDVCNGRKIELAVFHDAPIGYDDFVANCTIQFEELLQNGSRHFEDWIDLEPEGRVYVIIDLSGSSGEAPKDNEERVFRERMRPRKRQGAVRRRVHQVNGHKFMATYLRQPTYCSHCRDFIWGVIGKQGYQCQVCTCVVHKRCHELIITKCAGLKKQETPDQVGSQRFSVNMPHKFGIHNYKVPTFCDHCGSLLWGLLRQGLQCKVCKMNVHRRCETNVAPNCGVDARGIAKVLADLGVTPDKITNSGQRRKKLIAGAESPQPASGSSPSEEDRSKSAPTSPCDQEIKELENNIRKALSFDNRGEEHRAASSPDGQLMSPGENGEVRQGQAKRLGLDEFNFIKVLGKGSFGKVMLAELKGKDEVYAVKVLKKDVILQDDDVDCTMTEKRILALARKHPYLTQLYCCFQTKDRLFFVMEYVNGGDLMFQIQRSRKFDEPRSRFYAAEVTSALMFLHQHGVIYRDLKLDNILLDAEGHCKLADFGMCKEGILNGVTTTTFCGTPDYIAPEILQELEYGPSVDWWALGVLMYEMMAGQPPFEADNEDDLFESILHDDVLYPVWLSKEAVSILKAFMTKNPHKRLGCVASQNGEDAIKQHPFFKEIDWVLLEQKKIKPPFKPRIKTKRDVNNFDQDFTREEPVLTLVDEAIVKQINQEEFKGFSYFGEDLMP
pIC50: −log10 of the molar value.
quantity_measured: pIC50

// known answers, use as guide
molecule	reported
O=C(NC1CNCCC[C@H]1OC(=O)c1cc(O)c2c(=O)c3c(C(=O)O)cccc3oc2c1)c1ccc(O)cc1 (stereo partly drawn)	5.00
O=C(NC1CNCC1OC(=O)c1cc(O)c(C(=O)c2c(O)ccc3ccccc23)c(O)c1)c1ccc(O)cc1 (stereo not drawn)	5.66
O=C(NC1CNCCC[C@H]1OC(=O)c1cc(O)c(C(=O)c2ccccc2C(=O)O)c(O)c1)c1ccc(O)cc1 (stereo partly drawn)	5.46
O=C(NC1CNCCC[C@H]1OC(=O)c1cc(O)c(C(=O)C2CCCC[C@H]2C(=O)O)c(O)c1)c1ccc(O)cc1 (stereo partly drawn)	4.33
O=C(NC1CCCC1OC(=O)c1cc(O)c(C(=O)c2c(O)cccc2NS(=O)(=O)C(F)(F)F)c(O)c1)c1ccc(O)cc1 (stereo not drawn)	6.51
COc1cc(C(=O)O[C@@H]2CCCNCC2NC(=O)c2ccc(O)cc2)cc(OC)c1C(=O)c1c(O)cccc1O (stereo partly drawn)	4.44
O=C(NC1CNCCC[C@H]1OC(=O)c1cc(O)c(C2OC(=O)c3cccc(O)c32)c(O)c1)c1ccc(O)cc1 (stereo partly drawn)	4.80
O=C(NC1CCCC1OCc1cc(O)c(C(=O)c2c(O)cccc2C(=O)O)c(O)c1)c1ccc(O)cc1 (stereo not drawn)	6.43
O=C(NC1CNCC1OC(=O)c1cc(O)c(C(=O)c2c(C(=O)O)ccc3ccccc23)c(O)c1)c1ccc(O)cc1 (stereo not drawn)	5.34
Cn1nnc(-c2cccc(O)c2C(=O)c2c(O)cc(C(=O)OC3CCCC3NC(=O)c3ccc(O)cc3)cc2O)n1 (stereo not drawn)	5.42

P = COc1cccc(O)c1C(=O)c1c(O)cc(C(=O)O[C@@H]2CCCNCC2NC(=O)c2ccc(O)cc2)cc1O (stereo partly drawn)
Q = Cn1nnnc1-c1cccc(O)c1C(=O)c1c(O)cc(C(=O)OC2CCCC2NC(=O)c2ccc(O)cc2)cc1O (stereo not drawn)
R = N#Cc1cccc(O)c1C(=O)c1c(O)cc(C(=O)OC2CCCC2NC(=O)c2ccc(O)cc2)cc1O (stereo not drawn)
S = O=C(NC1CCCC1OC(=O)c1ccc(C(=O)c2c(O)cccc2C(=O)O)cc1)c1ccc(O)cc1 (stereo not drawn)
Sequence the entries by pIC50, beginning with the highest number. Output spec: labels arranged per the requested ranking. R, P, Q, S
(R: 6.08, P: 5.59, Q: 5.33, S: 4.52)

a = O=C(NC1CNCCC[C@H]1OC(=O)c1cc(O)c(C(=O)c2c(O)cccc2O)c(O)c1)c1ccc(O)cc1 (stereo partly drawn)
b = O=C(NC1CCCC1OC(=O)c1ccc(C(=O)c2c(O)cccc2C(=O)O)c(O)c1)c1ccc(O)cc1 (stereo not drawn)
c = COc1cccc(OC)c1C(=O)c1c(O)cc(C(=O)O[C@@H]2CCCNCC2NC(=O)c2ccc(O)cc2)cc1O (stereo partly drawn)
Sequence the entries by pIC50, beginning with the highest number. Output spec: labels arranged per the requested ranking. a, b, c

A = O=C(NC1CCCC1OC(=O)c1cc(O)c(C(=O)c2c(O)cccc2-c2nn[nH]n2)c(O)c1)c1ccc(O)cc1 (stereo not drawn)
B = O=C(NC1CNCC1OC(=O)c1cc(O)c2c(c1)C(=O)c1cccc(O)c1C2=O)c1ccc(O)cc1 (stereo not drawn)
Which of the two items, A and B , has the greater recorded pIC50? Mark your selection by writing its label. A
(A: 5.70, B: 5.48)
